Data origin: the supplement of paper PMC9112550

# Test system: Escherichia coli TOP10
# Assay info: shrunken log2 fold change of peptide-encoding DNA abundance (4.5 h post-induction vs induction); higher = less antimicrobial activity (less host growth inhibition)
# Test settings: time post-induction: 4.5 h; library: site-saturation at positions 5, 18, 19, 20
Give measured shrunken log2 fold change for each item. Keep answers brief.
Simply state the number, no unit and no words.

Would you kindly share the measured shrunken log2 fold change for RRIRMRPPRLPRPRPRPYDGPRP ?
-0.0589

Would you kindly share the measured shrunken log2 fold change for RRIRYRPPRLPRPRPRPETSPRP ?
0.014

Would you kindly share the measured shrunken log2 fold change for RRIRSRPPRLPRPRPRPSGIPRP ?
-0.169

Would you kindly share the measured shrunken log2 fold change for RRIRQRPPRLPRPRPRPYYHPRP ?
-0.413

Would you kindly share the measured shrunken log2 fold change for RRIRPRPPRLPRPRPRPCHIPRP ?
-0.821

Would you kindly share the measured shrunken log2 fold change for RRIRARPPRLPRPRPRPMAKPRP ?
0.216

Would you kindly share the measured shrunken log2 fold change for RRIRDRPPRLPRPRPRPTKGPRP ?
0.0341

Would you kindly share the measured shrunken log2 fold change for RRIRIRPPRLPRPRPRPIKMPRP ?
-0.177

Would you kindly share the measured shrunken log2 fold change for RRIRARPPRLPRPRPRPMVSPRP ?
0.124

Would you kindly share the measured shrunken log2 fold change for RRIRTRPPRLPRPRPRPAYQPRP ?
-0.0436

Would you kindly share the measured shrunken log2 fold change for RRIRTRPPRLPRPRPRPPGSPRP ?
0.00863

Would you kindly share the measured shrunken log2 fold change for RRIRSRPPRLPRPRPRPGDRPRP ?
-0.267

Would you kindly share the measured shrunken log2 fold change for RRIRGRPPRLPRPRPRPQRSPRP ?
0.16

Would you kindly share the measured shrunken log2 fold change for RRIRFRPPRLPRPRPRPFHQPRP ?
-0.192

Would you kindly share the measured shrunken log2 fold change for RRIRHRPPRLPRPRPRPMHEPRP ?
0.0983

Would you kindly share the measured shrunken log2 fold change for RRIRCRPPRLPRPRPRPPADPRP ?
0.95

Would you kindly share the measured shrunken log2 fold change for RRIRERPPRLPRPRPRPFMSPRP ?
-0.0685

Would you kindly share the measured shrunken log2 fold change for RRIRKRPPRLPRPRPRPISMPRP ?
-0.00992

Would you kindly share the measured shrunken log2 fold change for RRIRQRPPRLPRPRPRPFFIPRP ?
-0.365

Would you kindly share the measured shrunken log2 fold change for RRIRPRPPRLPRPRPRPLVWPRP ?
0.412

Would you kindly share the measured shrunken log2 fold change for RRIRGRPPRLPRPRPRPSCMPRP ?
0.336

Would you kindly share the measured shrunken log2 fold change for RRIRHRPPRLPRPRPRPNGWPRP ?
0.42

Would you kindly share the measured shrunken log2 fold change for RRIRGRPPRLPRPRPRPWAGPRP ?
0.188

Would you kindly share the measured shrunken log2 fold change for RRIRLRPPRLPRPRPRPYSWPRP ?
-0.176

Would you kindly share the measured shrunken log2 fold change for RRIRERPPRLPRPRPRPEVPPRP ?
-0.00233

Would you kindly share the measured shrunken log2 fold change for RRIRGRPPRLPRPRPRPKLTPRP ?
0.808

Would you kindly share the measured shrunken log2 fold change for RRIRHRPPRLPRPRPRPCAIPRP ?
-0.303

Would you kindly share the measured shrunken log2 fold change for RRIRCRPPRLPRPRPRPLGWPRP ?
0.506

Would you kindly share the measured shrunken log2 fold change for RRIRIRPPRLPRPRPRPTKEPRP ?
0.0462

Would you kindly share the measured shrunken log2 fold change for RRIRLRPPRLPRPRPRPSTQPRP ?
-0.337

Would you kindly share the measured shrunken log2 fold change for RRIRHRPPRLPRPRPRPVAFPRP ?
-0.187

Would you kindly share the measured shrunken log2 fold change for RRIRQRPPRLPRPRPRPQPLPRP ?
-0.0826

Would you kindly share the measured shrunken log2 fold change for RRIRNRPPRLPRPRPRPQENPRP ?
-0.151

Would you kindly share the measured shrunken log2 fold change for RRIRGRPPRLPRPRPRPKDIPRP ?
-0.0187

Would you kindly share the measured shrunken log2 fold change for RRIRCRPPRLPRPRPRPGNKPRP ?
-0.223

###

# System: Escherichia coli TOP10
# Assay info: shrunken log2 fold change of peptide-encoding DNA abundance (4.5 h post-induction vs induction); higher = less antimicrobial activity (less host growth inhibition)
# Test settings: time post-induction: 4.5 h; library: site-saturation at positions 5, 18, 19, 20
Assay metric: shrunken log2 fold change

Would you kindly share the measured shrunken log2 fold change for RRIRNRPPRLPRPRPRPQTKPRP ?
0.173

Would you kindly share the measured shrunken log2 fold change for RRIRERPPRLPRPRPRPLVMPRP ?
-0.0346

Would you kindly share the measured shrunken log2 fold change for RRIRDRPPRLPRPRPRPRKNPRP ?
0.244

Would you kindly share the measured shrunken log2 fold change for RRIRNRPPRLPRPRPRPHMNPRP ?
-0.572

Would you kindly share the measured shrunken log2 fold change for RRIRYRPPRLPRPRPRPGLQPRP ?
-0.0156

Would you kindly share the measured shrunken log2 fold change for RRIRRRPPRLPRPRPRPFDGPRP ?
0.079

Would you kindly share the measured shrunken log2 fold change for RRIRWRPPRLPRPRPRPNAEPRP ?
0.181

Would you kindly share the measured shrunken log2 fold change for RRIRSRPPRLPRPRPRPGIGPRP ?
1.62

Would you kindly share the measured shrunken log2 fold change for RRIRERPPRLPRPRPRPFDYPRP ?
0.155

Would you kindly share the measured shrunken log2 fold change for RRIRCRPPRLPRPRPRPSAWPRP ?
0.0978

Would you kindly share the measured shrunken log2 fold change for RRIRYRPPRLPRPRPRPYDQPRP ?
-0.124

Would you kindly share the measured shrunken log2 fold change for RRIRGRPPRLPRPRPRPKTNPRP ?
0.779

Would you kindly share the measured shrunken log2 fold change for RRIRARPPRLPRPRPRPLGGPRP ?
1.01

Would you kindly share the measured shrunken log2 fold change for RRIRLRPPRLPRPRPRPAAEPRP ?
0.432

Would you kindly share the measured shrunken log2 fold change for RRIRRRPPRLPRPRPRPVCQPRP ?
0.179

Would you kindly share the measured shrunken log2 fold change for RRIRYRPPRLPRPRPRPDRMPRP ?
-0.566

Would you kindly share the measured shrunken log2 fold change for RRIRSRPPRLPRPRPRPSAIPRP ?
0.0168

Would you kindly share the measured shrunken log2 fold change for RRIRARPPRLPRPRPRPLHFPRP ?
0.211

Would you kindly share the measured shrunken log2 fold change for RRIRTRPPRLPRPRPRPQIDPRP ?
-0.269

Would you kindly share the measured shrunken log2 fold change for RRIRIRPPRLPRPRPRPAEPPRP ?
-0.21

Would you kindly share the measured shrunken log2 fold change for RRIRVRPPRLPRPRPRPNHRPRP ?
-0.199

Would you kindly share the measured shrunken log2 fold change for RRIRERPPRLPRPRPRPLRYPRP ?
-0.0652

###

Give measured shrunken log2 fold change for each item. Keep answers brief.
# System: Escherichia coli TOP10;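 also: peptides expressed intracellularly from a pBAD plasmid library in pooled LB shake-flask culture, induced with 0.3% L-arabinose, DNA abundance read by NGS, three biological replicates, DESeq2 with apeglm shrinkage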
# Assay info: shrunken log2 fold change of peptide-encoding DNA abundance (4.5 h post-induction vs induction); higher = less antimicrobial activity (less host growth inhibition)
# Test settings: time post-induction: 4.5 h; library: site-saturation at positions 5, 18, 19, 20
Simply state the number, no unit and no words.

Would you kindly share the measured shrunken log2 fold change for RRIRQRPPRLPRPRPRPVCQPRP ?
-0.0856

Would you kindly share the measured shrunken log2 fold change for RRIRLRPPRLPRPRPRPCWIPRP ?
-0.241

Would you kindly share the measured shrunken log2 fold change for RRIRPRPPRLPRPRPRPKPYPRP ?
-0.0782

Would you kindly share the measured shrunken log2 fold change for RRIRWRPPRLPRPRPRPTVTPRP ?
0.0889

Would you kindly share the measured shrunken log2 fold change for RRIRCRPPRLPRPRPRPRNSPRP ?
-0.113

Would you kindly share the measured shrunken log2 fold change for RRIRARPPRLPRPRPRPYIGPRP ?
0.00388

Would you kindly share the measured shrunken log2 fold change for RRIRSRPPRLPRPRPRPMGHPRP ?
-0.256

Would you kindly share the measured shrunken log2 fold change for RRIRRRPPRLPRPRPRPEELPRP ?
0.338

Would you kindly share the measured shrunken log2 fold change for RRIRERPPRLPRPRPRPHADPRP ?
0.0454

Would you kindly share the measured shrunken log2 fold change for RRIRQRPPRLPRPRPRPHCRPRP ?
0.0105

Would you kindly share the measured shrunken log2 fold change for RRIRERPPRLPRPRPRPFRKPRP ?
-0.534

Would you kindly share the measured shrunken log2 fold change for RRIRIRPPRLPRPRPRPQTDPRP ?
-0.232

Would you kindly share the measured shrunken log2 fold change for RRIRGRPPRLPRPRPRPYSCPRP ?
0.131

Would you kindly share the measured shrunken log2 fold change for RRIRNRPPRLPRPRPRPQLKPRP ?
-0.0663

Would you kindly share the measured shrunken log2 fold change for RRIRDRPPRLPRPRPRPIMAPRP ?
-0.00298

Would you kindly share the measured shrunken log2 fold change for RRIRFRPPRLPRPRPRPCMHPRP ?
-0.111

Would you kindly share the measured shrunken log2 fold change for RRIRTRPPRLPRPRPRPQCQPRP ?
-0.0883

Would you kindly share the measured shrunken log2 fold change for RRIRMRPPRLPRPRPRPLNFPRP ?
-0.00433

Would you kindly share the measured shrunken log2 fold change for RRIRWRPPRLPRPRPRPKQTPRP ?
0.578

Would you kindly share the measured shrunken log2 fold change for RRIRHRPPRLPRPRPRPACMPRP ?
0.0463

Would you kindly share the measured shrunken log2 fold change for RRIRYRPPRLPRPRPRPLPQPRP ?
-0.0827

Would you kindly share the measured shrunken log2 fold change for RRIRFRPPRLPRPRPRPFRDPRP ?
-0.276

Would you kindly share the measured shrunken log2 fold change for RRIRYRPPRLPRPRPRPDSRPRP ?
-0.0156

Would you kindly share the measured shrunken log2 fold change for RRIRQRPPRLPRPRPRPMLVPRP ?
0.142

Would you kindly share the measured shrunken log2 fold change for RRIRSRPPRLPRPRPRPHEIPRP ?
-0.346

Would you kindly share the measured shrunken log2 fold change for RRIRTRPPRLPRPRPRPIMGPRP ?
-0.0135

Would you kindly share the measured shrunken log2 fold change for RRIRMRPPRLPRPRPRPNDVPRP ?
-0.00114

Would you kindly share the measured shrunken log2 fold change for RRIRIRPPRLPRPRPRPEKVPRP ?
-0.13

Would you kindly share the measured shrunken log2 fold change for RRIRCRPPRLPRPRPRPGSRPRP ?
0.235

Would you kindly share the measured shrunken log2 fold change for RRIRSRPPRLPRPRPRPLPGPRP ?
0.0761

Would you kindly share the measured shrunken log2 fold change for RRIRRRPPRLPRPRPRPSHHPRP ?
-0.173

Would you kindly share the measured shrunken log2 fold change for RRIRARPPRLPRPRPRPHYRPRP ?
0.0684

Would you kindly share the measured shrunken log2 fold change for RRIRPRPPRLPRPRPRPCGHPRP ?
-0.0439

Would you kindly share the measured shrunken log2 fold change for RRIRSRPPRLPRPRPRPNNAPRP ?
-0.38

Would you kindly share the measured shrunken log2 fold change for RRIRCRPPRLPRPRPRPSGWPRP ?
0.0712

Would you kindly share the measured shrunken log2 fold change for RRIRNRPPRLPRPRPRPNHKPRP ?
-0.688

Would you kindly share the measured shrunken log2 fold change for RRIRYRPPRLPRPRPRPNGDPRP ?
-0.112

Would you kindly share the measured shrunken log2 fold change for RRIRWRPPRLPRPRPRPQCKPRP ?
0.132

Would you kindly share the measured shrunken log2 fold change for RRIRMRPPRLPRPRPRPWDVPRP ?
0.0498

Would you kindly share the measured shrunken log2 fold change for RRIRKRPPRLPRPRPRPKKKPRP ?
0.0709

Would you kindly share the measured shrunken log2 fold change for RRIRSRPPRLPRPRPRPELAPRP ?
0.929

Would you kindly share the measured shrunken log2 fold change for RRIRYRPPRLPRPRPRPIIHPRP ?
-1.21

Would you kindly share the measured shrunken log2 fold change for RRIRDRPPRLPRPRPRPMWYPRP ?
-0.0225

Would you kindly share the measured shrunken log2 fold change for RRIRLRPPRLPRPRPRPWTGPRP ?
-0.0428

Would you kindly share the measured shrunken log2 fold change for RRIRDRPPRLPRPRPRPFAHPRP ?
0.228
